# apoptotic fraction of cells per record follows
System: MZ7MEL
Experiment: apoptotic fraction of cells (caspase-3 NucView488 positive); higher = more apoptosis
Conditions: 24 h; 3.16 µM
Quick one: just the number, no unit, thanks!

Worked examples follow.
Enquiry: Notebook entry, MZ7MEL assay: apoptotic fraction of cells of CCCS(=O)(=O)Nc1ccc(F)c(C(=O)c2c[nH]c3ncc(Cl)cc23)c1F = ?
Return: 0.0325

Enquiry: Notebook entry, MZ7MEL assay: apoptotic fraction of cells of CN(C)CCOc1ccc(-c2nc(-c3ccncc3)c(-c3ccc4c(c3)CC/C4=N\O)[nH]2)cc1 = ?
Return: 0.0357

Enquiry: Notebook entry, MZ7MEL assay: apoptotic fraction of cells of Cc1ccc(NC(=O)c2cccc(C(C)(C)C#N)c2)cc1Nc1ccc2ncn(C)c(=O)c2c1 = ?
Return: 0.0453

Enquiry: Notebook entry, MZ7MEL assay: apoptotic fraction of cells of CCCS(=O)(=O)Nc1ccc(F)c(C(=O)c2c[nH]c3ncc(-c4ccc(Cl)cc4)cc23)c1F = ?
Return: 0.0379

Let us move to another entry and its apoptotic fraction of cells.
Enquiry: Notebook entry, MZ7MEL assay: apoptotic fraction of cells of Cn1cnc2c(F)c(Nc3ccc(Br)cc3Cl)c(C(=O)NOCCO)cc21 = ?
Return: 0.0358

----------
Test system: COLO858
Assay: relative viability (cell count relative to DMSO-treated control) (fraction of DMSO control); higher = more viable cells / less drug effect
Conditions: 72 h; 0.01 µM
# relative viability per record follows
Quick one: just the number, no unit, thanks!

Enquiry: # relative viability lookup, item CCCS(=O)(=O)Nc1ccc(F)c(C(=O)c2c[nH]c3ncc(-c4ccc(Cl)cc4)cc23)c1F
Return: 1.18

Enquiry: # relative viability lookup, item CN(C)CCOc1ccc(-c2nc(-c3ccncc3)c(-c3ccc4c(c3)CC/C4=N\O)[nH]2)cc1
Return: 1.21

Enquiry: # relative viability lookup, item Cc1ccc(NC(=O)c2cccc(C(C)(C)C#N)c2)cc1Nc1ccc2ncn(C)c(=O)c2c1
Return: 1.13

Enquiry: # relative viability lookup, item CCCS(=O)(=O)Nc1ccc(F)c(C(=O)c2c[nH]c3ncc(Cl)cc23)c1F
Return: 1.2

New cases:
Enquiry: # relative viability lookup, item Cn1cnc2c(F)c(Nc3ccc(Br)cc3Cl)c(C(=O)NOCCO)cc21
Return: 1.05

----------
Tested on: RVH421
Assay: relative viability (cell count relative to DMSO-treated control) (fraction of DMSO control); higher = more viable cells / less drug effect
Conditions: 72 h; 3.16 µM
Observed Property: relative viability

Worked examples follow.
Enquiry: # relative viability lookup, item CCCS(=O)(=O)Nc1ccc(F)c(C(=O)c2c[nH]c3ncc(Cl)cc23)c1F [PLX4720]
Return: 0.483

Enquiry: # relative viability lookup, item Cc1ccc(NC(=O)c2cccc(C(C)(C)C#N)c2)cc1Nc1ccc2ncn(C)c(=O)c2c1 [AZ628]
Return: 0.412

New cases:
Enquiry: # relative viability lookup, item Cn1cnc2c(F)c(Nc3ccc(Br)cc3Cl)c(C(=O)NOCCO)cc21 [Selumetinib]
Return: 0.488

Enquiry: # relative viability lookup, item CCCS(=O)(=O)Nc1ccc(F)c(C(=O)c2c[nH]c3ncc(-c4ccc(Cl)cc4)cc23)c1F [Vemurafenib]
Return: 0.452

Enquiry: # relative viability lookup, item CN(C)CCOc1ccc(-c2nc(-c3ccncc3)c(-c3ccc4c(c3)CC/C4=N\O)[nH]2)cc1
Return: 0.542

----------
Tested on: WM115
Experiment: relative viability (cell count relative to DMSO-treated control) (fraction of DMSO control); higher = more viable cells / less drug effect
Details: 48 h; 3.16 µM
# relative viability per record follows
Quick one: just the number, no unit, thanks!

Enquiry: Notebook entry, WM115 assay: relative viability of Cn1cnc2c(F)c(Nc3ccc(Br)cc3Cl)c(C(=O)NOCCO)cc21 [Selumetinib] = ?
Return: 0.592

Enquiry: Notebook entry, WM115 assay: relative viability of Cc1ccc(NC(=O)c2cccc(C(C)(C)C#N)c2)cc1Nc1ccc2ncn(C)c(=O)c2c1 [AZ628] = ?
Return: 0.424

Enquiry: Notebook entry, WM115 assay: relative viability of CCCS(=O)(=O)Nc1ccc(F)c(C(=O)c2c[nH]c3ncc(-c4ccc(Cl)cc4)cc23)c1F [Vemurafenib] = ?
Return: 0.884

Enquiry: Notebook entry, WM115 assay: relative viability of CN(C)CCOc1ccc(-c2nc(-c3ccncc3)c(-c3ccc4c(c3)CC/C4=N\O)[nH]2)cc1 = ?
Return: 0.683

Let us move to another entry and its relative viability.
Enquiry: Notebook entry, WM115 assay: relative viability of CCCS(=O)(=O)Nc1ccc(F)c(C(=O)c2c[nH]c3ncc(Cl)cc23)c1F [PLX4720] = ?
Return: 0.792

----------
# apoptotic fraction of cells per record follows
System: C32
Experiment: apoptotic fraction of cells (caspase-3 NucView488 positive); higher = more apoptosis
Conditions: 24 h; 0.00316 µM
Quick one: just the number, no unit, thanks!

Worked examples follow.
Enquiry: Notebook entry, C32 assay: apoptotic fraction of cells of CN(C)CCOc1ccc(-c2nc(-c3ccncc3)c(-c3ccc4c(c3)CC/C4=N\O)[nH]2)cc1 = ?
Return: 0.0901

Enquiry: Notebook entry, C32 assay: apoptotic fraction of cells of Cn1cnc2c(F)c(Nc3ccc(Br)cc3Cl)c(C(=O)NOCCO)cc21 = ?
Return: 0.0878

Enquiry: Notebook entry, C32 assay: apoptotic fraction of cells of CCCS(=O)(=O)Nc1ccc(F)c(C(=O)c2c[nH]c3ncc(-c4ccc(Cl)cc4)cc23)c1F = ?
Return: 0.0798

Enquiry: Notebook entry, C32 assay: apoptotic fraction of cells of CCCS(=O)(=O)Nc1ccc(F)c(C(=O)c2c[nH]c3ncc(Cl)cc23)c1F = ?
Return: 0.0873

Let us move to another entry and its apoptotic fraction of cells.
Enquiry: Notebook entry, C32 assay: apoptotic fraction of cells of Cc1ccc(NC(=O)c2cccc(C(C)(C)C#N)c2)cc1Nc1ccc2ncn(C)c(=O)c2c1 = ?
Return: 0.0886

----------
System: WM115
Experiment: apoptotic fraction of cells (caspase-3 NucView488 positive); higher = more apoptosis
Details: 24 h; 0.00316 µM
Observed Property: apoptotic fraction of cells
Quick one: just the number, no unit, thanks!

Worked examples follow.
Enquiry: # apoptotic fraction of cells lookup, item CCCS(=O)(=O)Nc1ccc(F)c(C(=O)c2c[nH]c3ncc(-c4ccc(Cl)cc4)cc23)c1F
Return: 0.0555

Enquiry: # apoptotic fraction of cells lookup, item CCCS(=O)(=O)Nc1ccc(F)c(C(=O)c2c[nH]c3ncc(Cl)cc23)c1F
Return: 0.0488

Enquiry: # apoptotic fraction of cells lookup, item Cc1ccc(NC(=O)c2cccc(C(C)(C)C#N)c2)cc1Nc1ccc2ncn(C)c(=O)c2c1
Return: 0.0464

Enquiry: # apoptotic fraction of cells lookup, item CN(C)CCOc1ccc(-c2nc(-c3ccncc3)c(-c3ccc4c(c3)CC/C4=N\O)[nH]2)cc1
Return: 0.0434

New cases:
Enquiry: # apoptotic fraction of cells lookup, item Cn1cnc2c(F)c(Nc3ccc(Br)cc3Cl)c(C(=O)NOCCO)cc21
Return: 0.0496

----------
# relative viability per record follows
Tested on: RVH421
Experiment: relative viability (cell count relative to DMSO-treated control) (fraction of DMSO control); higher = more viable cells / less drug effect
Conditions: 24 h; 0.0316 µM
Quick one: just the number, no unit, thanks!

Worked examples follow.
Enquiry: Notebook entry, RVH421 assay: relative viability of Cn1cnc2c(F)c(Nc3ccc(Br)cc3Cl)c(C(=O)NOCCO)cc21 [Selumetinib] = ?
Return: 1.03

Enquiry: Notebook entry, RVH421 assay: relative viability of CCCS(=O)(=O)Nc1ccc(F)c(C(=O)c2c[nH]c3ncc(Cl)cc23)c1F [PLX4720] = ?
Return: 0.991

New cases:
Enquiry: Notebook entry, RVH421 assay: relative viability of CN(C)CCOc1ccc(-c2nc(-c3ccncc3)c(-c3ccc4c(c3)CC/C4=N\O)[nH]2)cc1 = ?
Return: 1.04

Enquiry: Notebook entry, RVH421 assay: relative viability of CCCS(=O)(=O)Nc1ccc(F)c(C(=O)c2c[nH]c3ncc(-c4ccc(Cl)cc4)cc23)c1F [Vemurafenib] = ?
Return: 0.993

Enquiry: Notebook entry, RVH421 assay: relative viability of Cc1ccc(NC(=O)c2cccc(C(C)(C)C#N)c2)cc1Nc1ccc2ncn(C)c(=O)c2c1 [AZ628] = ?
Return: 1.05

----------
Test system: WM115
Experiment: apoptotic fraction of cells (caspase-3 NucView488 positive); higher = more apoptosis
Details: 72 h; 1 µM
Observed Property: apoptotic fraction of cells
Quick one: just the number, no unit, thanks!

Enquiry: # apoptotic fraction of cells lookup, item Cc1ccc(NC(=O)c2cccc(C(C)(C)C#N)c2)cc1Nc1ccc2ncn(C)c(=O)c2c1 [AZ628]
Return: 0.644

Enquiry: # apoptotic fraction of cells lookup, item CN(C)CCOc1ccc(-c2nc(-c3ccncc3)c(-c3ccc4c(c3)CC/C4=N\O)[nH]2)cc1
Return: 0.144

Enquiry: # apoptotic fraction of cells lookup, item Cn1cnc2c(F)c(Nc3ccc(Br)cc3Cl)c(C(=O)NOCCO)cc21 [Selumetinib]
Return: 0.302

New cases:
Enquiry: # apoptotic fraction of cells lookup, item CCCS(=O)(=O)Nc1ccc(F)c(C(=O)c2c[nH]c3ncc(-c4ccc(Cl)cc4)cc23)c1F [Vemurafenib]
Return: 0.125

Enquiry: # apoptotic fraction of cells lookup, item CCCS(=O)(=O)Nc1ccc(F)c(C(=O)c2c[nH]c3ncc(Cl)cc23)c1F [PLX4720]
Return: 0.129
